biological target: EGFR (d746-750/T790M/C797S) (Homo sapiens (Human), UniProt P00533, C797S/DEL746-750/T790M); experiment: Inhibitory activity for EGFR (d746-750/T790M/C797S) kinase; conditions: ATP 5 μM; read-out: EGFR(d19/T790M/C797S) (IC50)
Sequence (P00533 other isoform, or with tags, fused parts or gaps T790M/C797S/del 1-694/del 746-750 limits assumed): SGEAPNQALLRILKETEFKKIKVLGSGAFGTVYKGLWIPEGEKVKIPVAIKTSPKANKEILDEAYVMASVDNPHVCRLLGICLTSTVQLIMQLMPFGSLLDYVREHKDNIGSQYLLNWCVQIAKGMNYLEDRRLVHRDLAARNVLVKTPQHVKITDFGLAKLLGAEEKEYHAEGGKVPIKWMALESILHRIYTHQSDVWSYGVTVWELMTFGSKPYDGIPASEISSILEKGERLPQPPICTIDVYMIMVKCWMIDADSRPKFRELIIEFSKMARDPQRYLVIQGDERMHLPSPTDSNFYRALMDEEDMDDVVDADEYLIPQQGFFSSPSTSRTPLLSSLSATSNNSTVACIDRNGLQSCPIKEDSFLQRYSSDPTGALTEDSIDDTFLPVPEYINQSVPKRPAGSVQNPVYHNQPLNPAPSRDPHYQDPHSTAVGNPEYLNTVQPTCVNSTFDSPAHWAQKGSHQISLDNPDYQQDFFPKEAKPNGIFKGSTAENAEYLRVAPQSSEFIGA
Can you tell me IC50 for the items I'm about to list?
# unit: nM | format: bare number

Inquiry: Item: Cc1cc2cc(n1)-c1cnn(C)c1OCCC[C@@H](C1CC1)CN1/C(=N/C2=O)Nc2cc(NCCCN3CCCC3)ccc21 Test system: EGFR (d746-750/T790M/C797S) (Homo sapiens (Human), UniProt P00533, C797S/DEL746-750/T790M) Read-out: IC50 Value: ?
Reply text: 0.04

Inquiry: Report IC50 for Cc1cc2cc(n1)-c1cnn(C)c1OCCC[C@@H](C1CC1)CN1/C(=N/C2=O)Nc2cc(NC3CNC3)ccc21 tested on EGFR (d746-750/T790M/C797S) (Homo sapiens (Human), UniProt P00533, C797S/DEL746-750/T790M).
Reply text: 0.013

Inquiry: Write down the reported IC50 of Cc1cc2cc(n1)-c1cnn(C)c1OC[C@H](C1CC1)CCCn1c(nc3cc(NC4COC4)ccc31)NC2=O , test system: EGFR (d746-750/T790M/C797S) (Homo sapiens (Human), UniProt P00533, C797S/DEL746-750/T790M).
Reply text: 0.07

Inquiry: Lab note: need IC50 for Cc1cc2cc(n1)-c1cnn(C)c1OCCC[C@@H](C1CC1)CN1/C(=N/C2=O)Nc2cc(NC3CN(C)C3)ccc21 on EGFR (d746-750/T790M/C797S) (Homo sapiens (Human), UniProt P00533, C797S/DEL746-750/T790M), anyone have it?
Reply text: 0.015

Inquiry: What value of IC50 on EGFR (d746-750/T790M/C797S) (Homo sapiens (Human), UniProt P00533, C797S/DEL746-750/T790M) does Cc1cc2cc(n1)-c1cnn(C)c1OCCC[C@@H](C1CC1)CN1/C(=N/C2=O)Nc2ccc(N[C@@H](C)CN3CCCCC3)cc21 have?
Reply text: 0.079

Inquiry: # returns recorded IC50 (system: EGFR (d746-750/T790M/C797S) (Homo sapiens (Human), UniProt P00533, C797S/DEL746-750/T790M)) for Cc1cc2cc(n1)-c1cnn(C)c1OCCC[C@@H](C1CC1)CN1/C(=N/C2=O)Nc2cc(NCCCN(C)C)ccc21
Reply text: 0.012

Inquiry: Param readout= IC50; system= EGFR (d746-750/T790M/C797S) (Homo sapiens (Human), UniProt P00533, C797S/DEL746-750/T790M); entry= Cc1cc2cc(n1)-c1cnn(C)c1OCCC[C@@H](C1CC1)CN1/C(=N/C2=O)Nc2cc(N[C@H](C)CN(C)C)ccc21 ; returns value.
Reply text: 0.083

###

assay endpoint: pIC50
// scale note: pIC50 = -log10(conc_M); give the bare number

Inquiry: Identify the measured pIC50 of Cc1cc2cc(n1)-c1cnn(C)c1OC[C@H](C1CC1)CCCn1c(nc3cc(NC4COC4)ccc31)NC2=O for EGFR (WT) (Homo sapiens (Human), UniProt P00533).
Reply text: 8.10

Inquiry: Record lookup: for EGFR (WT) (Homo sapiens (Human), UniProt P00533), what pIC50 belongs to Cc1cc2cc(n1)-c1cnn(C)c1OCCC[C@@H](C1CC1)CN1/C(=N/C2=O)Nc2ccc(C=CCCN(C)C)cc21 ?
Reply text: 8.96

Inquiry: State its pIC50 on EGFR (WT) (Homo sapiens (Human), UniProt P00533): Cc1cc2cc(n1)-c1cnn(C)c1OC[C@H](C1CC1)CCCn1c(nc3ccc(NC4COC4)cc31)NC2=O
Sequence (P00533 25-1210): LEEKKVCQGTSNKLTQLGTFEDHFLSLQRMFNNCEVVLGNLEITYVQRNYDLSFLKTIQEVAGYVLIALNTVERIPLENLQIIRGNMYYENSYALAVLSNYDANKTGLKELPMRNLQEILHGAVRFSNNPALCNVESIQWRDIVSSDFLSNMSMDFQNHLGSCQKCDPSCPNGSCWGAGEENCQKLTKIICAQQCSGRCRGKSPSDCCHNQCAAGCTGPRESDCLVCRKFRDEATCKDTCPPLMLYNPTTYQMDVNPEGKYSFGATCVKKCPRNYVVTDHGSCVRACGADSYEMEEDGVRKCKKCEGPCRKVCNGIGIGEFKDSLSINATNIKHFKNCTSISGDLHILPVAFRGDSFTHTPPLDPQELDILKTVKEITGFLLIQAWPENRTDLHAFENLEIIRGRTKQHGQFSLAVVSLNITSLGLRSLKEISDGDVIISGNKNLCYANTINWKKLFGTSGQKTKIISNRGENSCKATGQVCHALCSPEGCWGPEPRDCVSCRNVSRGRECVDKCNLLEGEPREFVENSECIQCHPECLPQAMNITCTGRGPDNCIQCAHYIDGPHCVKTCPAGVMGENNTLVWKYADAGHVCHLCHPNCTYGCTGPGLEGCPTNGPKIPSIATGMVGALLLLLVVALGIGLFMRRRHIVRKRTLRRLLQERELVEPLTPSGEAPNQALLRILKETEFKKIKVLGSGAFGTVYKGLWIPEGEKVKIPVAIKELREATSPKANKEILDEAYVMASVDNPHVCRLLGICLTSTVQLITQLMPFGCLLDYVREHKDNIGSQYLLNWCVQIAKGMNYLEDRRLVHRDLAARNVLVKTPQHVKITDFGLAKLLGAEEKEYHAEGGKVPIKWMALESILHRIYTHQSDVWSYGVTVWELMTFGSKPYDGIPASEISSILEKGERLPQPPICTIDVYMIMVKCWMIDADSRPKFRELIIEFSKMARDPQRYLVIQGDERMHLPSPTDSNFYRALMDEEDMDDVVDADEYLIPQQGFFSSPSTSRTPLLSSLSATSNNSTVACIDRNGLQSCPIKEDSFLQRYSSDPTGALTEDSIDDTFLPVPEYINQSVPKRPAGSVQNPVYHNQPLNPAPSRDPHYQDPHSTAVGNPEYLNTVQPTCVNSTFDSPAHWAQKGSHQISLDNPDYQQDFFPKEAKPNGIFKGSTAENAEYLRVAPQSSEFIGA
Reply text: 8.23
